Origin of values: paper PMC5540273

# Test system: WNK3;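 also: KINOMEscan kinase panel screen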
# run-conditions: concentration: 1 μM, replicates: in singlicate; n = 1
quantity-measured: %Inh (%)
Express it in %; write the number only.

In [3]: df
Out[3]:
                                   compound  readout_units  meas_value
0  Fc1cccc(COc2ccc(Nc3ncnc4nn5ccccc5c34)cc2Cl)c1 [GW689066]              %          20
1  FC(F)(F)c1ccc(-c2nn3ncccc3c2-c2ccnc(Nc3cccc(C(F)(F)F)c3)n2)cc1 [GW828205]              %           0
2  Nc1n[nH]c2nnc(-c3ccccc3)cc12 [SB-517389]              %           5
3  Fc1cccc(COc2ccc(Nc3ncnc4cc[nH]c34)cc2Cl)c1              %           0
4  Cl.Fc1ccccc1COc1ccc(Nc2ncnc3ccc(-c4nnc(C(F)(F)F)o4)cc23)cc1Cl [GW424170]              %          15

Quick note, %Inh for COc1ccc(NC(=O)c2ccc(-c3cc(-c4nnc(C)o4)ccc3C)cc2)cc1 [GW595885] landed at 25

Quick note, %Inh for CN1c2ccc(-c3ccc(C(=O)NCCO)cc3)cc2-c2[nH]ncc2S1(=O)=O landed at 0

Quick note, %Inh for c1ccc(-c2ccc3c(-c4ccnc(Nc5ccc6c(c5)OCCO6)n4)cnn3n2)cc1 [GW818941] landed at 15

Quick note, %Inh for Cc1ccc(NC(=O)c2cccc(C#N)c2)cc1-c1ccc(C(=O)Nc2ccncc2)cc1 [GSK1398463] landed at 18

Quick note, %Inh for COc1ccc(Nc2nccc(N3CCC(NC(=O)c4cccc(NC(C)=O)c4)C3)n2)cc1 (stereo not shown) [GSK1379732] landed at 0
